assay: Inhibition of LpxC in Acinetobacter baumannii focus ID 961025
Readout name: IC50 (nM)
Answer with a number only, understood to be in nM.

Q. Entry C[C@@H](O)[C@H](NC1CCN(C)c2cc(C#Cc3ccc(CN4CCOCC4)cc3)ccc21)C(=O)NO (some centres undefined) : reported IC50 = ?
A. 331

Q. Entry CCCCC(N[C@H](C(=O)NO)[C@@H](C)O)c1ccc(C#Cc2ccccc2)cc1 (some centres undefined) : reported IC50 = ?
A. 1460

Q. Entry C[C@@H](O)[C@H](NC1CCc2cc(C#Cc3ccc(CN4CCOCC4)cc3)ccc21)C(=O)NO (some centres undefined) : reported IC50 = ?
A. 382

Q. Entry C[C@@H](O)[C@H](NC1CCCCc2cc(C#Cc3ccccc3)ccc21)C(=O)NO (some centres undefined) : reported IC50 = ?
A. 1160

Q. Entry C[C@@H](O)[C@H](NC1CCOc2cc(C#Cc3ccc(CN4CCOCC4)cc3)ccc21)C(=O)NO (some centres undefined) : reported IC50 = ?
A. 83

Q. Entry C[C@@H](O)[C@H](NC1COCc2cc(C#Cc3ccc(CN4CCOCC4)cc3)ccc21)C(=O)NO (some centres undefined) : reported IC50 = ?
A. 25

Q. Entry C[C@@H](O)[C@H](NC1COCc2cc(C#Cc3ccccc3)ccc21)C(=O)NO (some centres undefined) : reported IC50 = ?
A. 49

Q. Entry `C[C@@H](O)[C@H](NCc1ccc(C#Cc2ccccc2)cc1)C(=O)NO` : reported IC50 = ?
A. 17

Q. Entry C[C@@H](O)[C@H](NC1CN(C)Cc2cc(C#Cc3ccccc3)ccc21)C(=O)NO (some centres undefined) : reported IC50 = ?
A. 310

Q. Entry `C[C@@H](O)[C@H](N[C@@H]1CCc2cc(C#Cc3ccc(CN4CCOCC4)cc3)ccc21)C(=O)NO` : reported IC50 = ?
A. 1990

Q. Entry C[C@@H](O)[C@H](NC1CCCc2cc(C#Cc3ccc(CN4CCOCC4)cc3)ccc21)C(=O)NO (some centres undefined) : reported IC50 = ?
A. 80

Q. Entry C[C@@H](O)[C@H](NC1CCCc2cc(C#Cc3ccccc3)ccc21)C(=O)NO (some centres undefined) : reported IC50 = ?
A. 40

Q. Entry C[C@@H](O)[C@H](NC1CCc2cc(C#Cc3ccccc3)ccc21)C(=O)NO (some centres undefined) : reported IC50 = ?
A. 165

Q. Entry CCCC(N[C@H](C(=O)NO)[C@@H](C)O)c1ccc(C#Cc2ccccc2)cc1 (some centres undefined) : reported IC50 = ?
A. 273

====

assay: Half life in rat at 10 mg/kg, iv; type: ADME, organism-based; settings: in vivo
Readout name: half-life
Phrase the answer as number then unit, nothing more needed.

Q. Entry `CC(C)(N)[C@H](N[C@H]1CCc2cc(C#Cc3ccc(Cn4ccnc4CO)cc3)ccc21)C(=O)NO` : reported half-life = ?
A. 1.87 h

====

experiment: Clearance in mouse at 2 mg/kg, iv; type: ADME, organism-based; conditions: in vivo
Readout name: clearance (mL/min/kg)
Answer with a number only, understood to be in mL/min/kg.

Q. Entry `CC(C)(N)[C@H](N[C@H]1CCc2cc(C#Cc3ccc(Cn4ccnc4CO)cc3)ccc21)C(=O)NO` : reported clearance = ?
A. 17.5

====

Please provide measured IC50 for the entries that follow.
target: UDP-3-O-acyl-N-acetylglucosamine deacetylase (Escherichia coli K-12); experiment: Inhibition of LpxC in Escherichia coli isolate 35 ATCC 25922; parameters: species or system Escherichia coli ATCC 25922
Sequence (P0A725 whole entry): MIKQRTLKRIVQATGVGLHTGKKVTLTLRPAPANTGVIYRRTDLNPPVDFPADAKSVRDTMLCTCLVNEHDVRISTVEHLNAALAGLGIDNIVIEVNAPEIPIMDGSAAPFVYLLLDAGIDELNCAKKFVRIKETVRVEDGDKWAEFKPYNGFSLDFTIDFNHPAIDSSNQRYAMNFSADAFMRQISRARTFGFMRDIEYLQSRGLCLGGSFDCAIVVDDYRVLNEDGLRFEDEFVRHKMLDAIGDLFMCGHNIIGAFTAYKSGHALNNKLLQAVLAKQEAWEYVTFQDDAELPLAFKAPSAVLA
Answer with a number only, understood to be in nM.

Q. Entry `CC(C)(O)[C@H](N[C@H]1CCc2cc(C#Cc3ccc(CN4CCN(CCO)CC4)cc3)ccc21)C(=O)NO` : reported IC50 = ?
A. 41

Q. Entry `CNCCOCc1ccc(C#Cc2ccc3c(c2)CC[C@@H]3N[C@H](C(=O)NO)[C@@H](C)O)cc1` : reported IC50 = ?
A. 15

Q. Entry `C[C@@H](O)[C@H](N[C@H]1CCc2cc(C#Cc3ccc(CN4CCOCC4)cc3)ccc21)C(=O)NO` : reported IC50 = ?
A. 2

Q. Entry C[C@@H](O)[C@H](NC1CCc2cc(C#Cc3ccccc3)ccc21)C(=O)NO (some centres undefined) : reported IC50 = ?
A. 7

Q. Entry `COC1CCN(Cc2ccc(C#Cc3ccc4c(c3)CC[C@@H]4N[C@H](C(=O)NO)[C@@H](C)O)cc2)CC1` : reported IC50 = ?
A. 5

Q. Entry `Cc1nccn1Cc1ccc(C#Cc2ccc3c(c2)CC[C@@H]3N[C@H](C(=O)NO)[C@@H](C)O)cc1` : reported IC50 = ?
A. 1

Q. Entry `C[C@@H](O)[C@H](N[C@H]1CCc2cc(C#Cc3ccc(CN4CC[C@@H](O)C4)cc3)ccc21)C(=O)NO` : reported IC50 = ?
A. 51

Q. Entry CC(N[C@H](C(=O)NO)[C@@H](C)O)c1ccc(C#Cc2ccccc2)cc1 (some centres undefined) : reported IC50 = ?
A. 96

Q. Entry `C[C@@H](O)[C@H](N[C@H]1CCc2cc(C#Cc3ccc(Cn4ccnc4CCO)cc3)ccc21)C(=O)NO` : reported IC50 = ?
A. 5

====

target: UDP-3-O-acyl-N-acetylglucosamine deacetylase (Pseudomonas aeruginosa (strain ATCC 15692 / PAO1 / 1C / PRS 101 / LMG12228), UniProt P47205); test: Inhibition of LpxC in Pseudomonas aeruginosa isolate 44 ATCC 27853
Sequence (P47205 whole entry): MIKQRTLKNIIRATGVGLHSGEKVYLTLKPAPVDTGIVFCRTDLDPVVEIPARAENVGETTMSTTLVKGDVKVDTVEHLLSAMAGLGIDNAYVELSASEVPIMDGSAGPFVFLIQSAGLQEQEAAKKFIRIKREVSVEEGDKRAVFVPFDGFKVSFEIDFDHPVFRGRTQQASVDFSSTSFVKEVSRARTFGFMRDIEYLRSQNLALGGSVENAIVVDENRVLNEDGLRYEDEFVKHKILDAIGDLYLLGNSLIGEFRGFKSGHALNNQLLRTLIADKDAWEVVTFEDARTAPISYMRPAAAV
Please provide measured IC50 for the entries that follow.
Answer with a number only, understood to be in nM.

Q. Entry C[C@@H](O)[C@H](NC1CCOc2cc(C#Cc3ccccc3)ccc21)C(=O)NO (stereo not given in full) : reported IC50 = ?
A. 13

Q. Entry `Cc1nccn1Cc1ccc(C#Cc2ccc3c(c2)CC[C@@H]3N[C@H](C(=O)NO)[C@@H](C)O)cc1` : reported IC50 = ?
A. 4

Q. Entry C[C@@H](O)[C@H](NC1CCCc2cc(C#Cc3ccccc3)ccc21)C(=O)NO (stereo not given in full) : reported IC50 = ?
A. 5

Q. Entry `CC(C)(N)[C@H](N[C@H]1CCc2cc(C#Cc3ccc(Cn4ccnc4CO)cc3)ccc21)C(=O)NO` : reported IC50 = ?
A. 4

Q. Entry `CC(C)(N)[C@H](N[C@H]1CCc2cc(C#Cc3ccc(CN4CCOCC4)cc3)ccc21)C(=O)NO` : reported IC50 = ?
A. 6

====

target: UDP-3-O-acyl-N-acetylglucosamine deacetylase (Pseudomonas aeruginosa (strain ATCC 15692 / PAO1 / 1C / PRS 101 / LMG12228)); assay: Inhibition of LpxC in Pseudomonas aeruginosa isolate 44 ATCC 27853
Please provide measured IC50 for the entries that follow.
Answer with a number only, understood to be in nM.

Q. Entry CC(N[C@H](C(=O)NO)[C@@H](C)O)c1ccc(C#Cc2ccccc2)cc1 (stereo partly drawn) : reported IC50 = ?
A. 72

Q. Entry `CNCCOCc1ccc(C#Cc2ccc3c(c2)CC[C@@H]3N[C@H](C(=O)NO)[C@@H](C)O)cc1` : reported IC50 = ?
A. 6

Q. Entry C[C@@H](O)[C@H](NC1CCCCc2cc(C#Cc3ccccc3)ccc21)C(=O)NO (stereo partly drawn) : reported IC50 = ?
A. 333

Q. Entry C[C@@H](O)[C@H](NC1CCN(C)c2cc(C#Cc3ccc(CN4CCOCC4)cc3)ccc21)C(=O)NO (stereo partly drawn) : reported IC50 = ?
A. 18

Q. Entry `CC(C)(O)[C@H](N[C@H]1CCc2cc(C#Cc3ccc(CN4CCN(CCO)CC4)cc3)ccc21)C(=O)NO` : reported IC50 = ?
A. 14

Q. Entry `C[C@@H](O)[C@H](N[C@H]1CCc2cc(C#Cc3ccc(Cn4ccnc4CCO)cc3)ccc21)C(=O)NO` : reported IC50 = ?
A. 5

Q. Entry C[C@@H](O)[C@H](NC1COCc2cc(C#Cc3ccccc3)ccc21)C(=O)NO (stereo partly drawn) : reported IC50 = ?
A. 14

Q. Entry `C[C@@H](O)[C@H](N[C@H]1CCc2cc(C#Cc3ccc(CN4CCN(C)CC4)cc3)ccc21)C(=O)NO` : reported IC50 = ?
A. 30

Q. Entry `COC1CCN(Cc2ccc(C#Cc3ccc4c(c3)CC[C@@H]4N[C@H](C(=O)NO)[C@@H](C)O)cc2)CC1` : reported IC50 = ?
A. 3

Q. Entry CC(C)(N)[C@H](NC1COCc2cc(C#Cc3ccc(CN4CCOCC4)cc3)ccc21)C(=O)NO (stereo partly drawn) : reported IC50 = ?
A. 8

Q. Entry CCC(N[C@H](C(=O)NO)[C@@H](C)O)c1ccc(C#Cc2ccccc2)cc1 (stereo partly drawn) : reported IC50 = ?
A. 214

Q. Entry C[C@@H](O)[C@H](NC1CCOc2cc(C#Cc3ccc(CN4CCOCC4)cc3)ccc21)C(=O)NO (stereo partly drawn) : reported IC50 = ?
A. 6

Q. Entry CC(C)(N)[C@H](NC1COCc2cc(C#Cc3ccc(Cn4ccnc4CO)cc3)ccc21)C(=O)NO (stereo partly drawn) : reported IC50 = ?
A. 5

Q. Entry CCCCC(N[C@H](C(=O)NO)[C@@H](C)O)c1ccc(C#Cc2ccccc2)cc1 (stereo partly drawn) : reported IC50 = ?
A. 616

Q. Entry C[C@@H](O)[C@H](NC1CCc2cc(C#Cc3ccc(CN4CCOCC4)cc3)ccc21)C(=O)NO (stereo partly drawn) : reported IC50 = ?
A. 4

Q. Entry `C[C@@H](O)[C@H](N[C@H]1CCc2cc(C#Cc3ccc(CN4CCN(CCO)CC4)cc3)ccc21)C(=O)NO` : reported IC50 = ?
A. 14

Q. Entry `C[C@@H](O)[C@H](N[C@@H]1CCc2cc(C#Cc3ccc(CN4CCOCC4)cc3)ccc21)C(=O)NO` : reported IC50 = ?
A. 8

Q. Entry `C[C@@H](O)[C@H](NCc1ccc(C#Cc2ccccc2)cc1)C(=O)NO` : reported IC50 = ?
A. 20

Every entry's value here was drawn from ChEMBL document CHEMBL4049409.
